I'd appreciate it if you could supply T/C values for the items below.
Tested on: L1210 leukemia ip in BDF1 mice, survival T/C
test-protocol: NCI In Vivo Anticancer Drug Screen. Data for tumor model L1210 Leukemia (intraperitoneal) in B6D2F1 (BDF1) mice
measurement-context: endpoint: mean survival time; dose: 400.0 mg/kg/injection; schedule: Q01DX009 (ip); vehicle: Klucel (hydroxypropylcellulose) (HPC); higher = longer survival
Toxic doses and inconclusive results are not listed.

Okay, here is my list. What is T/C for each of these?
1. Cc1ccc(C)c(OC(=O)NC2CCCCC2)c1
2. CCOC(=O)C(C(=O)OCC)=C(C#N)c1c[nH]c2ccccc12
3. Cc1ccc(NC(=S)Nc2ccccc2)c(C)c1
4. CCc1ccc(NC(=O)C(c2ccccc2)c2ccccc2)cc1
5. c1ccc2sc(SSc3nc4ccccc4s3)nc2c1
6. O=C(Nc1ccc(S(=O)(=O)F)cc1)/C(=C/c1cccc([N+](=O)[O-])c1)c1ccccc1
7. CCOC(=O)C(CCNC(=O)c1ccccc1)C(=O)OCC

1. 95 % of control
2. 92 % of control
3. 94 % of control
4. 89 % of control
5. 90 % of control
6. 100 % of control
7. 89 % of control

Okay, here is my list. What is T/C for each of these?
1. CCc1cccc(CC)c1N=Cc1ccccc1
2. CCCCCCCCOC(=O)c1ccccc1C(=O)OCCCCCCCC
3. C(=NCCc1ccccc1)c1ccccc1B1OB(c2ccccc2C=NCCc2ccccc2)OB(c2ccccc2C=NCCc2ccccc2)O1

1. 97 % of control
2. 96 % of control
3. 102 % of control

Okay, here is my list. What is T/C for each of these?
1. CC(=O)Nc1cccc(C(=O)O)c1[N+](=O)[O-]
2. Nc1ncnc2c1ncn2C1OC(CO)C(O)C1O (stereo not drawn)
3. Cc1ccc([N+](=O)[O-])cc1NC(=O)Nc1ccc(S(N)(=O)=O)cc1
4. CCOC(=O)C/C(=N\NC(=O)c1ccccc1O)C(=O)OCC
5. Cc1cc(Cl)ccc1NS(=O)(=O)c1ccccc1
6. CC1(CBr)Oc2ccccc2O1
7. CSc1ccc(NC(=O)Nc2cccc(C)n2)cc1

["93 % of control", "116 % of control", "103 % of control", "101 % of control", "96 % of control", "101 % of control", "97 % of control"]
